// note: pIC50 values for Cathepsin G (Homo sapiens, UniProt P08311) were reported in different studies
# TARGET OR TEST SYSTEM: Cathepsin G (Homo sapiens, UniProt P08311)
# Sequence (P08311 whole entry): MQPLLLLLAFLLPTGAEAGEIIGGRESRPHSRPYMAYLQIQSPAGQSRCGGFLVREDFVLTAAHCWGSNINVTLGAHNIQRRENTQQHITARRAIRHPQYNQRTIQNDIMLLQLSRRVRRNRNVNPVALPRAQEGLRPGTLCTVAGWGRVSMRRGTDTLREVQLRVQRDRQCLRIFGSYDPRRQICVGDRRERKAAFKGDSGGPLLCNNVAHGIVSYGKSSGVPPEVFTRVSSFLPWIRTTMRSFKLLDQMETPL
pIC50: −log10 of the molar value.

> print(dat)
                                   compound  measured.result
1  Cn1ccc2cccc(Cn3c(=O)n(CCC(=O)O)c4ccccc43)c21           < 5.00

What measured pIC50 is associated with "CC(C)(C)C(=O)Oc1ccc(S(=O)(=O)Nc2ccccc2C(=O)NCC(=O)O)cc1" on Cathepsin G (Homo sapiens, UniProt P08311)?
< 4.00

What measured pIC50 is associated with "Cn1cc(Cn2c(=O)n(CCC(=O)O)c3ccccc32)c2ccccc21" on Cathepsin G (Homo sapiens, UniProt P08311)?
< 5.00

What measured pIC50 is associated with "CCCCC(=O)c1ccccc1NS(=O)(=O)c1ccc(OC(=O)C(C)(C)C)cc1" on Cathepsin G (Homo sapiens, UniProt P08311)?
< 5.00
